Recorded Ki, one value per entry.
Target sequence: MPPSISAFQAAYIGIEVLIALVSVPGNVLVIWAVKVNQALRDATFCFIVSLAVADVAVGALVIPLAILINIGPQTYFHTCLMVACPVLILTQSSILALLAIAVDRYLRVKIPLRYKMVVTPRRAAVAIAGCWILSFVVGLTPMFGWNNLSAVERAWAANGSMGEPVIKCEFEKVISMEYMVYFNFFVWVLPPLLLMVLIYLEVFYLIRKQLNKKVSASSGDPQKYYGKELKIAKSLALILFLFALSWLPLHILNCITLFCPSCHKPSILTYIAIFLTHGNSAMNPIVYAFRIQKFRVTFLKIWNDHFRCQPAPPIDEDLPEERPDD

# structure, Ki / nM
rows = [
    ("N#Cc1c(N)nc(SCc2ncc[nH]2)c(C#N)c1-c1ccc(OCC2CC2)cc1", 235),
    ("N#Cc1c(N)nc(SCC2=NCCN2)c(C#N)c1-c1ccc(OCC2CC2)cc1", 483),
    ("C=C(C)COc1ccc(-c2c(C#N)c(N)nc(SCC(N)=O)c2C#N)cc1", 872),
    ("C=CCOc1ccc(-c2c(C#N)c(N)nc(SCC(N)=O)c2C#N)cc1", 323),
    ("N#Cc1c(N)nc(SCc2cccnc2)c(C#N)c1-c1ccc(OCC2CC2)cc1", 67),
    ("CCOc1ccc(-c2c(C#N)c(N)nc(SCc3ncc[nH]3)c2C#N)cc1", 8.2),
    ("N#Cc1c(N)nc(SCc2csc(N)n2)c(C#N)c1-c1ccc(OCC2CC2)cc1", 140),
]
